- test_description: Partition coefficient, log P of the compound at pH 7 by reversed-phase HPLC method
- Format: physicochemical
- condition_context: octanol/water
parameter: logP

INSERT INTO results (structure_notation, parameter, endpoint_result) VALUES
  ('CN1CCC2(CC1)CN(c1ccccc1NC(=O)Nc1ccc(OC(F)(F)F)cc1)c1ccccc12', 'logP', 4.6),
  ('O=C(Nc1ccc(OC(F)(F)F)cc1)Nc1ccccc1N1CC2(CCN(CCO)CC2)c2ccccc21', 'logP', 4.6),
  ('CC(C)(C)CN1CCC2(CC1)CN(c1ccccc1NC(=O)Nc1ccc(OC(F)(F)F)cc1)c1ccncc12', 'logP', 5.1),
  ('COCCN1CCC2(CC1)CN(c1ccccc1NC(=O)Nc1ccc(OC(F)(F)F)cc1)c1ccccc12', 'logP', 5.1);

###

- test_description: Partition coefficient, log P of the compound at pH 7 by reversed-phase HPLC method
- Type: physicochemical
- condition_context: octanol/water
parameter: logP

# count of solved cases: 3
INSERT INTO results (compound, endpoint_result) VALUES
  ('CC1(C)CCN(c2ccccc2NC(=O)Nc2ccc(OC(F)(F)F)cc2)c2ccccc21', '> 6.2'),
  ('CC(C)(C)CN1CCC2(C1)CN(c1ccccc1NC(=O)Nc1ccc(OC(F)(F)F)cc1)c1ccccc12 (centres undefined)', '> 6.2'),
  ('CC(C)(C)CN1CCC2(CC1)CN(c1ccccc1NC(=O)Nc1ccc(OC(F)(F)F)cc1)c1ccccc12', '> 6.2');

Next item in the queue.
Entry CC(C)(C)CN1CCC2(CC1)CN(c1ccccc1NC(=O)Nc1ccc(OC(F)(F)F)cc1)c1cnccc12 : reported logP = ?
> 6
